Molecular target: SRP54 Signal recognition particle 54 kDa protein (Homo sapiens)
Construct: isoTOP-ABPP experiments performed in cell lysates (in vitro); endogenous in cells; host or cells: soluble proteome of human cancer cell lines (MDA-MB-231, Ramos, Jurkat)
Sequence (P61011 whole entry): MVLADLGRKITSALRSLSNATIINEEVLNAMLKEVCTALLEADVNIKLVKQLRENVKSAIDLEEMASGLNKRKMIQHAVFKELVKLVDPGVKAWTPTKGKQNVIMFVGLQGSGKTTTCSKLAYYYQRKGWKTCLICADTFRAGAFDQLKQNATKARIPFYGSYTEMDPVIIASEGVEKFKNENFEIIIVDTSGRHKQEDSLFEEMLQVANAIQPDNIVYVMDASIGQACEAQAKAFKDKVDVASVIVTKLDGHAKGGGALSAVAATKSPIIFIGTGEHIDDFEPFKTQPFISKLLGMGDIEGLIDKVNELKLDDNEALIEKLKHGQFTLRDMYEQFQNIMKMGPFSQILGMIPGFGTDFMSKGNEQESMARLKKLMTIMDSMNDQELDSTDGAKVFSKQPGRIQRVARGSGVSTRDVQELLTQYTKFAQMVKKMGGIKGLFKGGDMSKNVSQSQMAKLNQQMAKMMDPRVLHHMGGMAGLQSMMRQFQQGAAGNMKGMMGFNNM
Assay: competitive isoTOP-ABPP
Assay type: binding
Conditions: 50 uM_231_sol_in vitro
Experimental: In vitro covalent fragment treatment for isoTOP-ABPP. All compounds were made up as solutions in DMSO (100×) and were used at a final concentration of 50 μM for activated esters and 100 μM for guanidinylating agents. […] R value calculation and processing. The ratios of light and heavy MS1 peaks for each unique peptide were quantified with a CIMAGE software using default parameters (3 MS1 acquisitions per peak and signal to noise threshold set to 2.5). […]
measured-endpoint: isoTOP-ABPP ratio, lysine P61011_K81
The answer should be written as a number, with no unit following it.

Tested system SRP54 Signal recognition particle 54 kDa protein (Homo sapiens); isoTOP-ABPP ratio, lysine P61011_K81 recorded for `O=C(Oc1c(F)c(F)cc(F)c1F)c1cc(C(F)(F)F)cc(C(F)(F)F)c1` was 1.1

Observed isoTOP-ABPP ratio, lysine P61011_K81, SRP54 Signal recognition particle 54 kDa protein (Homo sapiens), `O=C(ON1C(=O)CCC1=O)c1cc(C(F)(F)F)cc(C(F)(F)F)c1` : 0.9

Item: N#Cc1ccc(C(=O)Oc2ccc([N+](=O)[O-])cc2[N+](=O)[O-])cc1 [fragment 44, 2,4-Dinitrophenyl 4-cyanobenzoate] | System: SRP54 Signal recognition particle 54 kDa protein (Homo sapiens) | isoTOP-ABPP ratio, lysine P61011_K81: 1.0

Tested system SRP54 Signal recognition particle 54 kDa protein (Homo sapiens); isoTOP-ABPP ratio, lysine P61011_K81 recorded for `O=C(Oc1c(F)c(F)c(C(F)(F)F)c(F)c1F)c1cc(C(F)(F)F)cc(C(F)(F)F)c1` was 0.9

For NC(=O)c1cc(C(F)(F)F)cc(C(F)(F)F)c1 [fragment 51, reference compound] on SRP54 Signal recognition particle 54 kDa protein (Homo sapiens), measured isoTOP-ABPP ratio, lysine P61011_K81 was 0.7

Recorded isoTOP-ABPP ratio, lysine P61011_K81 for `O=C(CCc1ccc2c(c1)OCO2)Oc1ccc([N+](=O)[O-])cc1[N+](=O)[O-]` on SRP54 Signal recognition particle 54 kDa protein (Homo sapiens) was 1.0

---

Target: TPD52L2 Tumor protein D54 (Homo sapiens)
Construct: isoTOP-ABPP experiments performed in cell lysates (in vitro); endogenous in cells; host or cells: MDA-MB-231 soluble lysate
Sequence (O43399 whole entry): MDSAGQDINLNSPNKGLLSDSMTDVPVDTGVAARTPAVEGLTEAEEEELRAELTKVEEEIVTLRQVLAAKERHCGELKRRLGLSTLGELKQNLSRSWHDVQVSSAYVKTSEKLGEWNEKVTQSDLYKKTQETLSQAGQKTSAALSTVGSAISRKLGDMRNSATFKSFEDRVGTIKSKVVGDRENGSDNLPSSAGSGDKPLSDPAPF
Experiment: competitive isoTOP-ABPP
Format: binding
Conditions: O43399_K90; 50 uM, 231 sol, in vitro
Protocol: In vitro covalent fragment treatment for isoTOP-ABPP. All compounds were made up as solutions in DMSO (100×) and were used at a final concentration of 50 μM for activated esters and 100 μM for guanidinylating agents. […] R value calculation and processing. The ratios of light and heavy MS1 peaks for each unique peptide were quantified with a CIMAGE software using default parameters (3 MS1 acquisitions per peak and signal to noise threshold set to 2.5). […]
measured-endpoint: R value (DMSO/fragment) for probe 1 labeling
Give the figure by itself; no unit, no explanation.

R value (DMSO/fragment) for probe 1 labeling value, target or system TPD52L2 Tumor protein D54 (Homo sapiens), for O=C(Oc1c(F)c(F)c(F)c(F)c1F)C(c1ccccc1)c1ccccc1 [fragment 20, Pentafluorophenyl 2,2-diphenylacetate] : 1.5

Let me check: Cn1cc(CC(=O)Oc2c(F)c(F)c(F)c(F)c2F)c2ccccc21 [fragment 22] , system TPD52L2 Tumor protein D54 (Homo sapiens), measured R value (DMSO/fragment) for probe 1 labeling is 3.6

Reading of R value (DMSO/fragment) for probe 1 labeling for O=C(Oc1c(F)c(F)c(F)c(F)c1F)c1cc(C(F)(F)F)cc(C(F)(F)F)c1 [fragment 21] with TPD52L2 Tumor protein D54 (Homo sapiens): 2.0

Observed R value (DMSO/fragment) for probe 1 labeling, TPD52L2 Tumor protein D54 (Homo sapiens), O=C(CCc1cn(-c2ccccc2)nc1-c1ccccc1)Oc1c(F)c(F)c(F)c(F)c1F [fragment 19] : 2.6

Sample COc1cc(CCC(=O)Oc2c(F)c(F)c(F)c(F)c2F)cc(OC)c1OC [fragment 23] , system: TPD52L2 Tumor protein D54 (Homo sapiens). Its R value (DMSO/fragment) for probe 1 labeling is 1.5

---

Molecular target: SLC25A5 ADP/ATP translocase 2 (Homo sapiens, UniProt P05141)
Construct: isoTOP-ABPP experiments performed in cell lysates (in vitro); endogenous in cells; host or cells: MDA-MB-231 soluble lysate
Sequence (P05141 whole entry): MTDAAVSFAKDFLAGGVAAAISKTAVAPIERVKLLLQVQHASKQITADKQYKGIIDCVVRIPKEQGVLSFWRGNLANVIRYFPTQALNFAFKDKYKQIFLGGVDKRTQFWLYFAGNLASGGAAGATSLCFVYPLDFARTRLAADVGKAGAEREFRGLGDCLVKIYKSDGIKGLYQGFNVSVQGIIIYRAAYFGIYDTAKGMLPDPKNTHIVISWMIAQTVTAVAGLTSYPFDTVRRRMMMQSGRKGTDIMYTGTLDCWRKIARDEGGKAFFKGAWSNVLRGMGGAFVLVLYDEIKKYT
Assay: competitive isoTOP-ABPP
Type: binding
Details: 50 uM, in vitro, sol, 231
measured-endpoint: isoTOP-ABPP ratio (R) at liganded lysine P05141_K23
Please reply with the value in numeric form only.

GET /value?item= O=C(Oc1ccc([N+](=O)[O-])cc1[N+](=O)[O-])C1CCN(C(=O)OCc2ccccc2)CC1 [fragment 34] &field=isoTOP-ABPP ratio (R) at liganded lysine P05141_K23 returns 1.1

Please fill in: isoTOP-ABPP ratio (R) at liganded lysine P05141_K23 reported for O=C(Oc1ccc([N+](=O)[O-])cc1[N+](=O)[O-])C(c1ccccc1)(c1ccccc1)c1ccccc1 [fragment 42, 2,4-Dinitrophenyl 2,2,2-triphenylacetate] = 1.1

Value of isoTOP-ABPP ratio (R) at liganded lysine P05141_K23 reported for the molecule O=C(Oc1ccc([N+](=O)[O-])cc1[N+](=O)[O-])c1ccc(-c2ccccc2)cc1 [fragment 37] is 1.2

For CC(=O)Oc1ccc([N+](=O)[O-])cc1[N+](=O)[O-] [fragment 43, 2,4-Dinitrophenyl acetate] the molecule record lists isoTOP-ABPP ratio (R) at liganded lysine P05141_K23 as 0.9

Per the records, this molecule ( O=C(CC12CC3CC(CC(C3)C1)C2)Oc1ccc([N+](=O)[O-])cc1[N+](=O)[O-] [fragment 38] ) has isoTOP-ABPP ratio (R) at liganded lysine P05141_K23 equal to 1.1

Value of measured isoTOP-ABPP ratio (R) at liganded lysine P05141_K23 for the entry CC(C)(C)OC(=O)NCCCC(=O)Oc1ccc([N+](=O)[O-])cc1[N+](=O)[O-] [fragment 41] : 1.0

# isoTOP-ABPP ratio (R) at liganded lysine P05141_K23 (molecule: O=C(CCc1coc2cc(F)ccc2c1=O)Oc1ccc([N+](=O)[O-])cc1[N+](=O)[O-] [fragment 36] ) is 1.1

---

Target: ENOPH1 Enolase-phosphatase E1 (Homo sapiens)
Construct: endogenous in cells; host or cells: MDA-MB-231 (soluble fraction of lysate)
Sequence (Q9UHY7 whole entry): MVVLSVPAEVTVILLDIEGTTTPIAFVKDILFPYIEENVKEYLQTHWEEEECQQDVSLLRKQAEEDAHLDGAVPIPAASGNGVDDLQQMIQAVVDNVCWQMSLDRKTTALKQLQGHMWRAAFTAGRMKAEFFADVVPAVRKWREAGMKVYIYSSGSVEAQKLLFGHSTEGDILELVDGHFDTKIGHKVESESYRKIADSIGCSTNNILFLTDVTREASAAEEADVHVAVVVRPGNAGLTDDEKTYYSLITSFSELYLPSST
Assay: competitive isoTOP-ABPP
Assay type: binding
Conditions: 50 uM, 231 sol, in vitro
Protocol: In vitro covalent fragment treatment for isoTOP-ABPP. All compounds were made up as solutions in DMSO (100×) and were used at a final concentration of 50 μM for activated esters and 100 μM for guanidinylating agents. […] R value calculation and processing. The ratios of light and heavy MS1 peaks for each unique peptide were quantified with a CIMAGE software using default parameters (3 MS1 acquisitions per peak and signal to noise threshold set to 2.5). […]
Binarize isoTOP-ABPP reactivity ratio at lysine Q9UHY7_K111 at 1; below is 1 (yes), at or above is 0 (no).

Inquiry: Determine if `O=C(Oc1c(F)c(F)c(F)c(F)c1F)c1ccc2ccccc2n1` shows isoTOP-ABPP reactivity ratio at lysine Q9UHY7_K111 strictly lower than 1.
Reply text: 0 (no)

Inquiry: Answer whether the compound `O=C(CCc1coc2cc(F)ccc2c1=O)Oc1c(F)c(F)c(F)c(F)c1F` has isoTOP-ABPP reactivity ratio at lysine Q9UHY7_K111 strictly less than 1
Reply text: 0 (no)

Inquiry: Lab note: isoTOP-ABPP reactivity ratio at lysine Q9UHY7_K111 threshold 1. Does this compound come in strictly under it? `O=C(CCc1cn(-c2ccccc2)nc1-c1ccccc1)Oc1ccc([N+](=O)[O-])cc1[N+](=O)[O-]`
Reply text: 1 (yes)

Inquiry: Problem: For the compound O=C(Oc1ccc([N+](=O)[O-])cc1[N+](=O)[O-])C(c1ccccc1)c1ccccc1 [fragment 30, 2,4-Dinitrophenyl 2,2-diphenylacetate] , is isoTOP-ABPP reactivity ratio at lysine Q9UHY7_K111 under 1?
Reply text: 1 (yes)

Inquiry: Problem: For the compound `COc1cc(CCC(=O)Oc2ccc([N+](=O)[O-])cc2[N+](=O)[O-])cc(OC)c1OC` , is isoTOP-ABPP reactivity ratio at lysine Q9UHY7_K111 under 1?
Reply text: 1 (yes)

Inquiry: A record lists `O=C(CN1C(=O)c2ccccc2C1=O)Oc1c(F)c(F)c(F)c(F)c1F` . Is its isoTOP-ABPP reactivity ratio at lysine Q9UHY7_K111 below 1?
Reply text: 0 (no)

Inquiry: is_below(isoTOP-ABPP reactivity ratio at lysine Q9UHY7_K111, 1) for `Cn1cc(CC(=O)Oc2ccc([N+](=O)[O-])cc2[N+](=O)[O-])c2ccccc21` ?
Reply text: 0 (no)

Inquiry: I'd appreciate it if you could check whether `O=C(Oc1c(F)c(F)c(F)c(F)c1F)C1CCN(C(=O)OCc2ccccc2)CC1` has isoTOP-ABPP reactivity ratio at lysine Q9UHY7_K111 smaller than 1.
Reply text: 0 (no)
